Target: β-lactame receptor (RSA) (Staphylococcus aureus, UniProt P18357)
Construct: made in house
Sequence (P18357 331-585 limits assumed): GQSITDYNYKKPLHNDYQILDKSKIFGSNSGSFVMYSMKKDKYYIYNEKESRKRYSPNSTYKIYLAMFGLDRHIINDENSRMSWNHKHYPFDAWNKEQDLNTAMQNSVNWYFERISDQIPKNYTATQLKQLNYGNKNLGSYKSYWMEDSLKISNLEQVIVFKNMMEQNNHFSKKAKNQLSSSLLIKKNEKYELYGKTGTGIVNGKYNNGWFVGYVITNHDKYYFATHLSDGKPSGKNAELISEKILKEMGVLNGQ
Type: binding
Settings: milk; β-lactames; three-parameter test
Method: This mixture is prepared either as required or lyophilisated for 20 hours. The Recovery System The other capture zones are identical but differently positioned, as in FIG. 2. A single control zone serves as a reference for the three markers. 200 μL of cold milk are incubated at 50° C. in the presence of 50 μl of the reagents prepared and/or lyophilisated as above. […] The final interpretation is made after 3 minutes of incubation by means of an optical dipstick reader available at Matest (Germany). […]
PROPERTY_NAME: Concentration detection limit
Hey, just the number and the unit after it is fine.

Record CC1(C)S[C@@H]2[C@H](NC(=O)[C@H](N)c3ccccc3)C(=O)N2[C@H]1C(=O)O [Ampicillin] , field Concentration detection limit: 4 ppb

###

Below, each entry is listed with its recorded Concentration detection limit.
biological target: β-lactame receptor (RSA) (Staphylococcus aureus); construct: made in house; type: binding; settings: milk; β-lactames; three-parameter test
Hey, just the number and the unit after it is fine.

>  <COMPOUND>
CO/N=C(\C(=O)N[C@@H]1C(=O)N2C(C(=O)O)=C(CSC(=O)c3ccco3)CS[C@H]12)c1csc(N)n1 [Ceftiofur]

>  <DATA_VALUE>
10 ppb

$$$$
>  <COMPOUND>
CC(=O)OCC1=C(C(=O)O)N2C(=O)[C@@H](NC(=O)CSc3ccncc3)[C@H]2SC1 [Cephapyrin]

>  <DATA_VALUE>
8 ppb

$$$$

Record CC1(C)S[C@@H]2[C@H](NC(=O)[C@H](N)c3ccc(O)cc3)C(=O)N2[C@H]1C(=O)O [Amoxicillin] , field Concentration detection limit: 4 ppb

Record CC1(C)S[C@@H]2[C@H](NC(=O)Cc3ccccc3)C(=O)N2[C@H]1C(=O)O [Benzylpenicillin] , field Concentration detection limit: 2 ppb
